normalised viability values, listed per item
Tested on: Hs578T
MEASUREMENT_NOTES: normalised viability (% of control), CellTiter-Blue; higher = more viable cells (about 100 = DMSO control)
CONDITIONS: 10 nM; incubation time: 72 h
Return type: number; implicit unit %.

Answered cases to consult:
compound="CN(C)/N=N/c1[nH]cnc1C(N)=O [Dacarbazine]" result=119
compound="CN[C@@H]1C[C@H]2O[C@@](C)([C@@H]1OC)n1c3ccccc3c3c4c(c5c6ccccc6n2c5c31)C(=O)N[C@H]4O [UCN-01]" result=88.3
compound="Clc1ccc(Nc2nnc(Cc3ccncc3)c3ccccc23)cc1 [Vatalanib]" result=115

GET /values?readout=normalised viability&item= C#Cc1cccc(Nc2ncnc3cc(OCCOC)c(OCCOC)cc23)c1 [Erlotinib]
123

Reported normalised viability for CNCc1ccc(-c2[nH]c3cc(F)cc4c3c2CCNC4=O)cc1 [Rucaparib] : what is it?
112
